# measured_target: Beta-2 adrenergic receptor (Homo sapiens)
# Sequence (P07550 whole entry): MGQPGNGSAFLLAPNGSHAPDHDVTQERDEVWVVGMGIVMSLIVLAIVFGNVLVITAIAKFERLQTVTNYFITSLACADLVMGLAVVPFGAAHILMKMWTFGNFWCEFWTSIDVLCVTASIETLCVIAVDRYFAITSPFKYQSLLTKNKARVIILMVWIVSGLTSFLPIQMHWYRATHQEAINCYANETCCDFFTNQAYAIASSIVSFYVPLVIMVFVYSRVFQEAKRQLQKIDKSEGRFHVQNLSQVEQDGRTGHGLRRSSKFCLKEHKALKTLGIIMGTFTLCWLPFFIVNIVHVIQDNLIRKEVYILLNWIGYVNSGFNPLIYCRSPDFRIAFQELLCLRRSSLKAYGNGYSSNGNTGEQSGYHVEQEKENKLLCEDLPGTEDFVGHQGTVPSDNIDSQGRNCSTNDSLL
# test: Binding affinity to recombinant human beta-2 adrenergic receptor prepared from CHO cells in the presence of [125I]iodocyanopindolol
endpoint_label: IC50 (µM)

{"molecule": "COC(=O)NC(c1ccc(F)cc1)c1nc(-c2ccc(S(=O)(=O)Nc3ccc(CCNC[C@H](O)c4cccnc4)cc3)cc2)no1 (stereo not given in full)", "output_unit": "µM", "recorded_number": 5.4}

(a) COc1ccc(OCc2nc(-c3ccc(S(=O)(=O)Nc4ccc(CCNC[C@H](O)c5cccnc5)cc4)cc3)no2)cc1
(b) CS(=O)(=O)Nc1ccc(Cc2nc(-c3ccc(S(=O)(=O)Nc4ccc(CCNC[C@H](O)c5cccnc5)cc4)cc3)no2)cc1
(c) O=S(=O)(Nc1ccc(CCNC[C@H](O)c2cccnc2)cc1)c1ccc(-c2noc(Cc3cc(F)c(F)c(F)c3)n2)cc1
(d) O=S(=O)(Nc1ccc(CCNC[C@H](O)c2cccnc2)cc1)c1ccc(-c2noc(COc3ccc(F)c(F)c3)n2)cc1
Rank ascending by IC50. API: response body holds the labels in the requested order.
c, d, b, a
(c: 0.72 µM, d: 1.43 µM, b: 3 µM, a: 5 µM)

(a) O=S(=O)(Nc1ccc(CCNC[C@H](O)c2cccnc2)cc1)c1ccc(-c2noc(C(O)c3ccc(F)cc3)n2)cc1 (stereo not given in full)
(b) O=S(=O)(Nc1ccc(CCNC[C@H](O)c2cccnc2)cc1)c1ccc(-c2noc(Cc3ccc(OC(F)(F)F)cc3)n2)cc1
Could you please tell me which of these two has the higher IC50: a or b ? Indicate which entry you chose by stating its label.
b

(1) O=S(=O)(Nc1ccc(CCNC[C@H](O)c2cccnc2)cc1)c1ccc(-c2noc(Cc3ccc(C(F)(F)F)cc3)n2)cc1
(2) O=S(=O)(Nc1ccc(CCNC[C@H](O)c2cccnc2)cc1)c1ccc(-c2nc(COc3ccc(F)c(F)c3)no2)cc1
(3) O=S(=O)(Nc1ccc(CCNC[C@H](O)c2cccnc2)cc1)c1ccc(-c2noc(Cc3ccc(F)c(F)c3)n2)cc1
(4) O=S(=O)(Nc1ccc(CCNC[C@H](O)c2cccnc2)cc1)c1ccc(-c2noc(COc3ccc(C4N=NN=N4)cc3)n2)cc1
Order the 4 molecules from highest to lowest IC50. # output: labels, in the requested order
4, 2, 1, 3

---

# measured_target: Beta-1 adrenergic receptor (Homo sapiens)
# Sequence (P08588 whole entry): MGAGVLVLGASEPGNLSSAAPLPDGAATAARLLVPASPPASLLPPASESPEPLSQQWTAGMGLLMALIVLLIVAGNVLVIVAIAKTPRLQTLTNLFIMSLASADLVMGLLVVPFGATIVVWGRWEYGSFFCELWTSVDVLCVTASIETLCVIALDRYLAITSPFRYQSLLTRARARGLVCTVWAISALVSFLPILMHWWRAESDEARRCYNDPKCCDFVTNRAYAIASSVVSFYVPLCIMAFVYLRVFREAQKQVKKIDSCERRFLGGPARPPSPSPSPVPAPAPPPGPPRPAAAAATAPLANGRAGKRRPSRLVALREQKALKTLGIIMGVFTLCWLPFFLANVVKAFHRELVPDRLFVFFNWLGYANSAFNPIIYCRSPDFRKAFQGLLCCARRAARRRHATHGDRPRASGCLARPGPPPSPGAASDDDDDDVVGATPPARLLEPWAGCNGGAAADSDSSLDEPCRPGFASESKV
# test: Binding affinity to recombinant human beta-1 adrenergic receptor expressed in CHO cells in the presence of [125I]iodocyanopindolol
endpoint_label: IC50 (µM)

{"smiles_record": "O=S(=O)(Nc1ccc(CCNC[C@H](O)c2cccnc2)cc1)c1ccc(-c2noc(Cc3ccc(C(F)(F)F)cc3)n2)cc1", "IC50, µM": 2}
{"smiles_record": "O=S(=O)(Nc1ccc(CCNC[C@H](O)c2cccnc2)cc1)c1ccc(-c2noc(Cc3cccc(OC(F)(F)F)c3)n2)cc1", "IC50, µM": 2}
{"smiles_record": "CS(=O)(=O)Nc1ccc(Cc2nc(-c3ccc(S(=O)(=O)Nc4ccc(CCNC[C@H](O)c5cccnc5)cc4)cc3)no2)cc1", "IC50, µM": 2}

---

# measured_target: Beta-3 adrenergic receptor (Homo sapiens)
# Sequence (P13945 whole entry): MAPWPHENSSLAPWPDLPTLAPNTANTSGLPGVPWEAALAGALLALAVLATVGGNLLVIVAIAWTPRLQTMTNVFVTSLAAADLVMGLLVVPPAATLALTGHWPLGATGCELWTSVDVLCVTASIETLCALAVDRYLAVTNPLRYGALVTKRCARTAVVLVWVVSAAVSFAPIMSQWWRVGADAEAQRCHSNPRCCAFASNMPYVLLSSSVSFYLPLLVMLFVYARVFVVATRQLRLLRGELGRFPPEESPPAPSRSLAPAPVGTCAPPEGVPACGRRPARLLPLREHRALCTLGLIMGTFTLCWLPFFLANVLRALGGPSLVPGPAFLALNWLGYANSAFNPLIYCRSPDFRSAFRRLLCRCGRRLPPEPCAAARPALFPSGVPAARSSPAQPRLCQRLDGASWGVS
# test: Stimulation of cAMP levels in CHO cells expressing the recombinant human beta-3 adrenergic receptor
pEC50: −log10 of the molar value.
endpoint_label: pEC50

{"smiles_record": "O=S(=O)(Nc1ccc(CCNC[C@H](O)c2cccnc2)cc1)c1ccc(-c2noc(COc3ccccc3O)n2)cc1", "recorded_number": 8.22}
{"smiles_record": "O=S(=O)(Nc1ccc(CCNC[C@H](O)c2cccnc2)cc1)c1ccc(-c2noc(Cc3cccc(F)c3)n2)cc1", "recorded_number": 7.92}
{"smiles_record": "O=S(=O)(Nc1ccc(CCNC[C@H](O)c2cccnc2)cc1)c1ccc(-c2noc(COc3ccc4ccccc4c3)n2)cc1", "recorded_number": 8.15}
